- Experimental target: KRAS G12C (GMPPNP-loaded, Cys-light, amino acids 1-169) and cRAF Ras-binding domain interaction (Homo sapiens, UniProt P01116, C118S/C51S/C80L/G12C)
- Construct: truncated version comprising amino acids 1-169
- Sequence (P01116 1-169 isoform P01116-2 G12C/C51S/C80L/C118S): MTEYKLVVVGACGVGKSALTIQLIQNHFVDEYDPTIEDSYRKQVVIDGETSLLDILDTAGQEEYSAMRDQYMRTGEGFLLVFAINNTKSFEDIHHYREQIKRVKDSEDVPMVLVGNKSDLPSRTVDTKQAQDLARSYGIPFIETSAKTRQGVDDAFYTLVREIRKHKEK
- Assay comment: Inhibition of KRAS G12C and cRAF binding (AlphaScreen)
- Experimental conditions: KRAS G12C preloaded with GMPPNP, 2 hours compound incubation, room temperature
pIC50: −log10 of the molar value.
Measured pIC50 of individual entries

Past entries and their recorded results:
N#CC[C@H]1CN(c2nc(OC[C@@]34CCCN3C[C@H](F)C4)nc3c(F)c(-c4cccc5cccc(Cl)c45)ncc23)CCN1C(=O)/C(F)=C/CN1[C@@H]2CC[C@H]1COC2    ≤ 6.30
COc1nc(N2CCN(C(=O)/C(F)=C/c3cc(C)nc(C)n3)[C@@H](CC#N)C2)c2cnc(-c3cc(O)cc(Cl)c3C3CC3)c(F)c2n1    > 8.00

# evaluate next
QUERY: GET /values?readout=pIC50&item= N#CC[C@H]1CN(c2nc(OC[C@@]34CCCN3C[C@H](F)C4)nc3c(F)c(-c4cccc5cccc(Cl)c45)ncc23)CCN1C(=O)/C(F)=C/c1ccnc(C2CC2)n1
RESULT: > 8.00

Reference source for all entries: patent US20260274867A1
